System: Saccharomyces cerevisiae
Assay Explanation: protein stability index of tFT-peptide fusion (C-terminal peptide) (PSI (0-1 scale)); higher = more stable (slower turnover);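 also: PSI is a weighted mean of sequencing reads over stability bins, variants kept only with over 10 reads, mCherry proximal and sfGFP distal, peptide attached via GGGS linker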
Condition Label: genetic background: wild type; temperature: 30 C
Class 1 (yes): protein stability index at least 0.7. Class 0 (no): protein stability index below 0.7.

Would you please look over these solved cases?
GEPGRLNSSLFA : 0 (no)
SYKIDYIDIRVG : 0 (no)
EGGLKIRRSRDE : 0 (no)
GPCPCAPRSPSY : 0 (no)
SPGPPLPSLTLP : 1 (yes)

Ask: Reported protein stability index at or above 0.7? APPLPTHYCPHL
Result: 1 (yes)

Ask: Reported protein stability index at or above 0.7? GGVEGGGCVGGG
Result: 0 (no)

Ask: Reported protein stability index at or above 0.7? EINEKPGINKKI
Result: 0 (no)

Ask: Reported protein stability index at or above 0.7? VCAFGFPAASRV
Result: 0 (no)

----------
Test system: Saccharomyces cerevisiae
Assay Explanation: protein stability index of tFT-peptide fusion (C-terminal peptide) (PSI (0-1 scale)); higher = more stable (slower turnover)
Condition Label: genetic background: cdc53-1; temperature: 37 C
Measure: protein stability index
# output: bare number, no unit

FFLFLFFFLRGS : 0.54
LFVVHCFLSVSS : 0.0524
GVFFHFFFLFCF : 0.352
GNSAGSVGGGRF : 0.738
VSRVHIRIEGNH : 0.755
AFVALCACVIFV : 0.249
PCVPRLLPLQLS : 0.795
VIRSIVSAYMIC : 0.649
RICCLFILLFCL : 0.464
FFTLSTVKLLRV : 0.521

Ask: State the recorded protein stability index for this entry: IVWVSSFVCRSV
Result: 0.574

Ask: State the recorded protein stability index for this entry: IVLCVFTVDSDF
Result: 0.478

Ask: State the recorded protein stability index for this entry: VYFRYWLLVVVF
Result: 0.106

Ask: State the recorded protein stability index for this entry: HRDVISVVRNMS
Result: 0.709

Ask: State the recorded protein stability index for this entry: GGWRVLHAWVAV
Result: 0.682

Ask: State the recorded protein stability index for this entry: LSRFRYFVLTSL
Result: 0.691

Ask: State the recorded protein stability index for this entry: WSWVFVVLRFGR
Result: 0.537

Ask: State the recorded protein stability index for this entry: VLLCFFLGIVGF
Result: 0.487

Ask: State the recorded protein stability index for this entry: PALPTPPVSPSP
Result: 0.667

----------
Test system: Saccharomyces cerevisiae
Assay Explanation: protein stability index of tFT-peptide fusion (C-terminal peptide) (PSI (0-1 scale)); higher = more stable (slower turnover)
Condition Label: genetic background: cdc34-1; temperature: 37 C
Please map values of protein stability index to classes as shown: low value = under 0.4, medium value = from 0.4 up to 0.6, high value = 0.6 and over

Would you please look over these solved cases?
RLVCPFYIACVW : high value
FRFSSLLYILLS : low value
VLAARVVLLRCR : low value

Ask: The entry to classify is GVVRKLCHWVVA ; which class holds it?
Result: medium value

Ask: The entry to classify is CSFCSGMILLLS ; which class holds it?
Result: medium value

Ask: The entry to classify is LYLFKVLFFRVF ; which class holds it?
Result: low value

Ask: The entry to classify is DVWEHLHKQHNM ; which class holds it?
Result: high value

Ask: The entry to classify is GPILVWVMADWG ; which class holds it?
Result: medium value

Ask: The entry to classify is IVLCVFTVDSDF ; which class holds it?
Result: low value

Ask: The entry to classify is GGGAGVVWVRLG ; which class holds it?
Result: medium value

Ask: The entry to classify is LMVLISVMFSLG ; which class holds it?
Result: low value

Ask: The entry to classify is NHKTIRIQNKSI ; which class holds it?
Result: high value

Ask: The entry to classify is VFSVSVLFLFFH ; which class holds it?
Result: low value

Ask: The entry to classify is RICCLFILLFCL ; which class holds it?
Result: medium value

Ask: The entry to classify is NVALHPGVPRKC ; which class holds it?
Result: high value

Ask: The entry to classify is MALAVRVVACGA ; which class holds it?
Result: low value

Ask: The entry to classify is SIVDLFRLRSLS ; which class holds it?
Result: high value

Ask: The entry to classify is CGSLDLPHQCLL ; which class holds it?
Result: high value

----------
Tested on: Saccharomyces cerevisiae
Assay Explanation: protein stability index of tFT-peptide fusion (C-terminal peptide) (PSI (0-1 scale)); higher = more stable (slower turnover)
Condition Label: genetic background: das1 deletion; temperature: 30 C
Measure: protein stability index
# output: bare number, no unit

FVRVFLRLGVVS : 0.194
SFFFTLLICFLF : 0.234
GGSGGVSWRRVV : 0.654
VWFFGVVLGGLW : 0.423
RHRGHVRLALLN : 0.772

Ask: Could you share what protein stability index was measured for CGSLDLPHQCLL , tested on Saccharomyces cerevisiae?
Result: 0.677

Ask: Could you share what protein stability index was measured for LLVYLYFFFSCS , tested on Saccharomyces cerevisiae?
Result: 0.292

Ask: Could you share what protein stability index was measured for FVYFLLVVCFAF , tested on Saccharomyces cerevisiae?
Result: 0.184

Ask: Could you share what protein stability index was measured for SCFRSLAVYFLC , tested on Saccharomyces cerevisiae?
Result: 0.603

Ask: Could you share what protein stability index was measured for GYACSIFYLRCV , tested on Saccharomyces cerevisiae?
Result: 0.496

Ask: Could you share what protein stability index was measured for VLAARVVLLRCR , tested on Saccharomyces cerevisiae?
Result: 0.199

Ask: Could you share what protein stability index was measured for RVTRLDAIYFRI , tested on Saccharomyces cerevisiae?
Result: 0.341

Ask: Could you share what protein stability index was measured for RRIKIRKQEYIS , tested on Saccharomyces cerevisiae?
Result: 0.684

Ask: Could you share what protein stability index was measured for MALAVRVVACGA , tested on Saccharomyces cerevisiae?
Result: 0.196

Ask: Could you share what protein stability index was measured for ETYCLPRVASGI , tested on Saccharomyces cerevisiae?
Result: 0.655

Ask: Could you share what protein stability index was measured for EWAILSLGVMCV , tested on Saccharomyces cerevisiae?
Result: 0.193

Ask: Could you share what protein stability index was measured for VERKLMTIYIKI , tested on Saccharomyces cerevisiae?
Result: 0.451

Ask: Could you share what protein stability index was measured for SFLVFLYFFMVF , tested on Saccharomyces cerevisiae?
Result: 0.335

Ask: Could you share what protein stability index was measured for FSYLSFLPSLAA , tested on Saccharomyces cerevisiae?
Result: 0.466

----------
Test system: Saccharomyces cerevisiae
Assay Explanation: protein stability index of tFT-peptide fusion (C-terminal peptide) (PSI (0-1 scale)); higher = more stable (slower turnover)
Condition Label: genetic background: wild type; temperature: 30 C
Reported protein stability index by item:
# output: bare number, no unit

NSHRYDSNIPDS : 0.685
CSTIRDFTIYPP : 0.694
SKVLKSKSTGRG : 0.75
LKNKVDGKVSGK : 0.601
QGQAEREAERRS : 0.673

Please turn your attention to the following entry.
Ask: State the recorded protein stability index for this entry: DKVKILVGVAGW
Result: 0.607

----------
Test system: Saccharomyces cerevisiae
Assay Explanation: protein stability index of tFT-peptide fusion (C-terminal peptide) (PSI (0-1 scale)); higher = more stable (slower turnover)
Condition Label: genetic background: cdc53-1; temperature: 37 C
Class label 1: protein stability index at least 0.6. Class label 0: protein stability index below 0.6.

Would you please look over these solved cases?
LFVMVSVSGLVV : label 0
LVLELYRFARFG : label 1
IVFGWGVEWGRL : label 1
VGRVIVIVVAGV : label 0

Ask: Reported protein stability index at or above 0.6? FWFLWAKMLLSC
Result: label 0

Ask: Reported protein stability index at or above 0.6? LLVFFLAIPSLV
Result: label 0

Ask: Reported protein stability index at or above 0.6? TVERKMYWQRWG
Result: label 1

Ask: Reported protein stability index at or above 0.6? VVATLRCLRCSV
Result: label 0

Ask: Reported protein stability index at or above 0.6? TPPLPTTPTLNS
Result: label 1

Ask: Reported protein stability index at or above 0.6? QERKILGRIKQA
Result: label 1

Ask: Reported protein stability index at or above 0.6? SWFNLLSILPRD
Result: label 1

Ask: Reported protein stability index at or above 0.6? VFAFVVFLHFEC
Result: label 0

Ask: Reported protein stability index at or above 0.6? VISGFVLVFRVR
Result: label 0

Ask: Reported protein stability index at or above 0.6? GGSIKRFVILVL
Result: label 0

Ask: Reported protein stability index at or above 0.6? FLFLFIFYFFCC
Result: label 0

Ask: Reported protein stability index at or above 0.6? MACLRLTVYVMG
Result: label 0
